- System: HT29 colon
- measurement_description: NCI-60 one-dose screen, 48 h
- protocol_conditions: 10 µM unless noted
The panel holds about 83,000 compounds, 20% with a hit somewhere; the sample as a whole holds those more often. Active and inactive are the calls of the source. The calls were made as follows: active = growth percent below 10; inactive = the rest.
Tick one outcome: active, inactive

q: Field: outcome | Entry: FC(F)(F)c1cc(Nc2ccc3cc(OCCCN4CCOCC4)ccc3n2)ccc1Cl
a: active

q: Field: outcome | Entry: CN(c1ccccc1)c1ccc2c(c1)OCCC21CC1Nc1cnccc1C(=O)O (centres undefined)
a: inactive

q: Field: outcome | Entry: CN1CCN(CCCOc2ccc3nc(Nc4ccc(F)c(F)c4)ccc3c2)CC1
a: active

q: Field: outcome | Entry: CN(C)CCNc1nc2ccccc2c2c1c1c(n2Cc2ccccc2)-c2ccccc2C1=O
a: active

q: Field: outcome | Entry: Cn1cc(-c2csc(-c3cccc(F)c3)n2)c2cccnc21
a: active

q: Field: outcome | Entry: NC(=N\N=C/c1cccc([N+](=O)[O-])c1)/C(N)=N\N=C/c1cccc([N+](=O)[O-])c1
a: inactive

q: Field: outcome | Entry: O=C(CSc1nnc(-c2ccc(NC(=O)c3cccnc3)cc2)o1)N[C@@H](Cc1ccc(O)cc1)C(=O)O
a: inactive

q: Field: outcome | Entry: O=C(N/N=C/C=C/c1ccc([N+](=O)[O-])o1)c1cc2ccccc2cc1O
a: active

q: Field: outcome | Entry: c1coc(-c2c3ccc(=[N+]4CCCCC4)cc-3oc3cc(N4CCCCC4)ccc23)c1
a: active

q: Field: outcome | Entry: Cc1cc(N2CCCC2)nc(NCc2cc(Nc3ccnc4cc(Cl)ccc34)ccc2F)n1
a: active
